PROPERTY_MEASURED: logP

Observe how each entry below is paired with its result.
[
  {
    "MOLECULE": "Cc1cc(C)nc(NC(=O)C(C)c2ccccc2)c1 (centres undefined)",
    "PROPERTY_MEASURED": "logP",
    "RECORDED_NUMBER": 3.67
  },
  {
    "MOLECULE": "Cc1cc(C)nc(NC(=O)c2cc3ccccc3s2)c1",
    "PROPERTY_MEASURED": "logP",
    "RECORDED_NUMBER": 4.08
  }
]

(I) CC(=O)Oc1ccccc1C(=O)Nc1cc(C)cc(C)n1
(II) Cc1cc(C)nc(NC(=O)c2cccc(Cl)c2)c1
## Input Please indicate which entry, I or II , has the lower recorded logP value. Refer to your chosen entry by its label in the reply.
## Output I
(I: 2.35, II: 3.88)
